B1: library; a variant is named by its letters at N, in order (parent)
chain: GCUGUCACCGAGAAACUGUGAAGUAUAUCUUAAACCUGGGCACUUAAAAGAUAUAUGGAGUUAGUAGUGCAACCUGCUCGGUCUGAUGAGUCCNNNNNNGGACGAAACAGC

Variants of: B1
experimentDescription: normalized RNA/DNA level with ligand (relative to sTRSVctl = 100) (log10 (% of sTRSVctl)); HEK293T; ligand: cyclic di-GMP (c-di-GMP-II aptamer); ligand concentration (+) RNA-Seq: 1 mM; higher = less ribozyme self-cleavage, higher mRNA level
settings: reporter: mCherry (pCS4076), ligand present: yes
readoutKind: normalized RNA/DNA level with ligand (log10)

| macromoleculeSequence | observed |
| --- | --- |
| GCUGUCACCGAGAAACUGUGAAGUAUAUCUUAAACCUGGGCACUUAAAAGAUAUAUGGAGUUAGUAGUGCAACCUGCUCGGUCUGAUGAGUCCUCAAUGGGACGAAACAGC [UCAAUG] | 1.78 |
| GCUGUCACCGAGAAACUGUGAAGUAUAUCUUAAACCUGGGCACUUAAAAGAUAUAUGGAGUUAGUAGUGCAACCUGCUCGGUCUGAUGAGUCCGUGGAUGGACGAAACAGC [GUGGAU] | 1.72 |
| GCUGUCACCGAGAAACUGUGAAGUAUAUCUUAAACCUGGGCACUUAAAAGAUAUAUGGAGUUAGUAGUGCAACCUGCUCGGUCUGAUGAGUCCUUUCUGGGACGAAACAGC [UUUCUG] | 1.92 |
| GCUGUCACCGAGAAACUGUGAAGUAUAUCUUAAACCUGGGCACUUAAAAGAUAUAUGGAGUUAGUAGUGCAACCUGCUCGGUCUGAUGAGUCCCCAAUCGGACGAAACAGC [CCAAUC] | 1.71 |
| GCUGUCACCGAGAAACUGUGAAGUAUAUCUUAAACCUGGGCACUUAAAAGAUAUAUGGAGUUAGUAGUGCAACCUGCUCGGUCUGAUGAGUCCCUCUCAGGACGAAACAGC [CUCUCA] | 1.78 |
| GCUGUCACCGAGAAACUGUGAAGUAUAUCUUAAACCUGGGCACUUAAAAGAUAUAUGGAGUUAGUAGUGCAACCUGCUCGGUCUGAUGAGUCCUGUACCGGACGAAACAGC [UGUACC] | 1.9 |
| GCUGUCACCGAGAAACUGUGAAGUAUAUCUUAAACCUGGGCACUUAAAAGAUAUAUGGAGUUAGUAGUGCAACCUGCUCGGUCUGAUGAGUCCGCGCGCGGACGAAACAGC [GCGCGC] | 1.8 |
| GCUGUCACCGAGAAACUGUGAAGUAUAUCUUAAACCUGGGCACUUAAAAGAUAUAUGGAGUUAGUAGUGCAACCUGCUCGGUCUGAUGAGUCCUCGAAAGGACGAAACAGC [UCGAAA] | 1.58 |
| GCUGUCACCGAGAAACUGUGAAGUAUAUCUUAAACCUGGGCACUUAAAAGAUAUAUGGAGUUAGUAGUGCAACCUGCUCGGUCUGAUGAGUCCACUCAUGGACGAAACAGC [ACUCAU] | 1.81 |
| GCUGUCACCGAGAAACUGUGAAGUAUAUCUUAAACCUGGGCACUUAAAAGAUAUAUGGAGUUAGUAGUGCAACCUGCUCGGUCUGAUGAGUCCUGACACGGACGAAACAGC [UGACAC] | 1.87 |
| GCUGUCACCGAGAAACUGUGAAGUAUAUCUUAAACCUGGGCACUUAAAAGAUAUAUGGAGUUAGUAGUGCAACCUGCUCGGUCUGAUGAGUCCCUAUCAGGACGAAACAGC [CUAUCA] | 1.74 |
| GCUGUCACCGAGAAACUGUGAAGUAUAUCUUAAACCUGGGCACUUAAAAGAUAUAUGGAGUUAGUAGUGCAACCUGCUCGGUCUGAUGAGUCCUUUUCUGGACGAAACAGC [UUUUCU] | 1.9 |
| GCUGUCACCGAGAAACUGUGAAGUAUAUCUUAAACCUGGGCACUUAAAAGAUAUAUGGAGUUAGUAGUGCAACCUGCUCGGUCUGAUGAGUCCCAAGUUGGACGAAACAGC [CAAGUU] | 1.86 |
| GCUGUCACCGAGAAACUGUGAAGUAUAUCUUAAACCUGGGCACUUAAAAGAUAUAUGGAGUUAGUAGUGCAACCUGCUCGGUCUGAUGAGUCCUCACAGGGACGAAACAGC [UCACAG] | 1.83 |
| GCUGUCACCGAGAAACUGUGAAGUAUAUCUUAAACCUGGGCACUUAAAAGAUAUAUGGAGUUAGUAGUGCAACCUGCUCGGUCUGAUGAGUCCAAGAGAGGACGAAACAGC [AAGAGA] | 1.54 |
| GCUGUCACCGAGAAACUGUGAAGUAUAUCUUAAACCUGGGCACUUAAAAGAUAUAUGGAGUUAGUAGUGCAACCUGCUCGGUCUGAUGAGUCCGCCCUAGGACGAAACAGC [GCCCUA] | 1.85 |
| GCUGUCACCGAGAAACUGUGAAGUAUAUCUUAAACCUGGGCACUUAAAAGAUAUAUGGAGUUAGUAGUGCAACCUGCUCGGUCUGAUGAGUCCAUACAAGGACGAAACAGC [AUACAA] | 1.73 |
| GCUGUCACCGAGAAACUGUGAAGUAUAUCUUAAACCUGGGCACUUAAAAGAUAUAUGGAGUUAGUAGUGCAACCUGCUCGGUCUGAUGAGUCCACUGGUGGACGAAACAGC [ACUGGU] | 1.76 |
| GCUGUCACCGAGAAACUGUGAAGUAUAUCUUAAACCUGGGCACUUAAAAGAUAUAUGGAGUUAGUAGUGCAACCUGCUCGGUCUGAUGAGUCCUAUAGCGGACGAAACAGC [UAUAGC] | 1.83 |
| GCUGUCACCGAGAAACUGUGAAGUAUAUCUUAAACCUGGGCACUUAAAAGAUAUAUGGAGUUAGUAGUGCAACCUGCUCGGUCUGAUGAGUCCCCUCCGGGACGAAACAGC [CCUCCG] | 1.87 |
| GCUGUCACCGAGAAACUGUGAAGUAUAUCUUAAACCUGGGCACUUAAAAGAUAUAUGGAGUUAGUAGUGCAACCUGCUCGGUCUGAUGAGUCCCAUAUAGGACGAAACAGC [CAUAUA] | 1.51 |
| GCUGUCACCGAGAAACUGUGAAGUAUAUCUUAAACCUGGGCACUUAAAAGAUAUAUGGAGUUAGUAGUGCAACCUGCUCGGUCUGAUGAGUCCUUAUUAGGACGAAACAGC [UUAUUA] | 1.8 |
| GCUGUCACCGAGAAACUGUGAAGUAUAUCUUAAACCUGGGCACUUAAAAGAUAUAUGGAGUUAGUAGUGCAACCUGCUCGGUCUGAUGAGUCCUUAAACGGACGAAACAGC [UUAAAC] | 1.8 |
| GCUGUCACCGAGAAACUGUGAAGUAUAUCUUAAACCUGGGCACUUAAAAGAUAUAUGGAGUUAGUAGUGCAACCUGCUCGGUCUGAUGAGUCCCACGGGGGACGAAACAGC [CACGGG] | 1.8 |
| GCUGUCACCGAGAAACUGUGAAGUAUAUCUUAAACCUGGGCACUUAAAAGAUAUAUGGAGUUAGUAGUGCAACCUGCUCGGUCUGAUGAGUCCCCUGCCGGACGAAACAGC [CCUGCC] | 1.89 |
| GCUGUCACCGAGAAACUGUGAAGUAUAUCUUAAACCUGGGCACUUAAAAGAUAUAUGGAGUUAGUAGUGCAACCUGCUCGGUCUGAUGAGUCCUUCCUCGGACGAAACAGC [UUCCUC] | 1.91 |
| GCUGUCACCGAGAAACUGUGAAGUAUAUCUUAAACCUGGGCACUUAAAAGAUAUAUGGAGUUAGUAGUGCAACCUGCUCGGUCUGAUGAGUCCGGCUCUGGACGAAACAGC [GGCUCU] | 1.92 |
| GCUGUCACCGAGAAACUGUGAAGUAUAUCUUAAACCUGGGCACUUAAAAGAUAUAUGGAGUUAGUAGUGCAACCUGCUCGGUCUGAUGAGUCCAGAUGUGGACGAAACAGC [AGAUGU] | 1.77 |
| GCUGUCACCGAGAAACUGUGAAGUAUAUCUUAAACCUGGGCACUUAAAAGAUAUAUGGAGUUAGUAGUGCAACCUGCUCGGUCUGAUGAGUCCCAUCUGGGACGAAACAGC [CAUCUG] | 1.88 |
| GCUGUCACCGAGAAACUGUGAAGUAUAUCUUAAACCUGGGCACUUAAAAGAUAUAUGGAGUUAGUAGUGCAACCUGCUCGGUCUGAUGAGUCCAUUGUUGGACGAAACAGC [AUUGUU] | 1.77 |
